molecular target: D(2) dopamine receptor (Rattus norvegicus, UniProt P61169); assay: Binding affinity towards Dopamine receptor D2 in rat striatum using YM-09151-2 as a radioligand
Sequence (P61169 whole entry): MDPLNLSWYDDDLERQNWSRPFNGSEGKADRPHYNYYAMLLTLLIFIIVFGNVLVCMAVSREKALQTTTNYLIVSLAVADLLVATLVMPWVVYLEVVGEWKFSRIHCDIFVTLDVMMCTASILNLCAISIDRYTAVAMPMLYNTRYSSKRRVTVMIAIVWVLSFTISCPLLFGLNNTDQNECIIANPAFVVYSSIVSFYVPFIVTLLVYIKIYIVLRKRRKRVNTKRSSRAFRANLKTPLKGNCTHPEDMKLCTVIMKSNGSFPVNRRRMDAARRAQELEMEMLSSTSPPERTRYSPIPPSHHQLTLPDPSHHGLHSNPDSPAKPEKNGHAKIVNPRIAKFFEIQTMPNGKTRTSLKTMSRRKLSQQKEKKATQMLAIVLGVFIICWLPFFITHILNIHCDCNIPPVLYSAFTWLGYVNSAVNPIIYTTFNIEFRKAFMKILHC
PROPERTY: pKi
The value called pKi is obtained by taking minus log10 of the concentration in mol/L.

ITEM_SMILES | QUANTITATIVE_RESULT
O=C(c1ccc(Cl)c(Cl)c1)N1CCC(F)(CNCc2cccc(N3CCC3)n2)CC1 | 6.51
O=C(c1ccc(Cl)c(Cl)c1)N1CCC(F)(CNCc2cccc(-c3ccco3)n2)CC1 | 5.92
O=C(c1ccc(Cl)c(Cl)c1)N1CCC(F)(CNCc2cccc(-c3cccs3)n2)CC1 | 6.34
CN(C)c1cccc(CNCC2(F)CCN(C(=O)c3cccc(Cl)c3)CC2)n1 | 6.21
O=C(c1ccc(Cl)c(Cl)c1)N1CCC(F)(CNCc2cccc(-c3nccs3)n2)CC1 | 5.47
O=C(c1ccc(Cl)c(Cl)c1)N1CCC(F)(CNCc2cccc(-c3cnco3)n2)CC1 | 5.65
Cc1ccc(C(=O)N2CCC(F)(CNCc3cccc(N(C)C)n3)CC2)cc1Cl | 6.89

Query string: Could you share which pKi value was measured for O=C(c1ccc(Cl)c(Cl)c1)N1CCC(F)(CNCc2cccc(-c3cc[nH]n3)n2)CC1 ?
Result string: 5.39

----------
Target: 5-hydroxytryptamine receptor 1A (Homo sapiens, UniProt P08908)
Sequence (P08908 whole entry): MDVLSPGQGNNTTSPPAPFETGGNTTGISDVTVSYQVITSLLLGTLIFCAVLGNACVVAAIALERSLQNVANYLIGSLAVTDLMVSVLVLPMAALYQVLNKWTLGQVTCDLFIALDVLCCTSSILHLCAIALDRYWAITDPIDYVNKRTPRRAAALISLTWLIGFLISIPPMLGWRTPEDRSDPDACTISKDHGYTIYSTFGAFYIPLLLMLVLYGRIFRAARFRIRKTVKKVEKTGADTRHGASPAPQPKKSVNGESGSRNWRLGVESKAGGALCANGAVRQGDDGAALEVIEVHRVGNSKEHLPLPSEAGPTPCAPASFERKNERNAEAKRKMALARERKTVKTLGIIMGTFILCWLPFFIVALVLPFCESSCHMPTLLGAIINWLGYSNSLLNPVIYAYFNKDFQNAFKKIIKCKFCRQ
Test: In vitro effective concentration required to inhibit forskolin-stimulated cAMP levels in HA7 cells expressing human 5-HT1A receptor
This listing pairs compounds with measured pEC50.
The value called pEC50 is obtained by taking minus log10 of the concentration in mol/L.

ITEM_SMILES | TGT | pEC50
CNc1cccc(CNCC2CCN(C(=O)c3ccc(Cl)c(Cl)c3)CC2)n1 | 5-hydroxytryptamine receptor 1A (Homo sapiens, UniProt P08908) | 7.66
O=C(c1ccc(Cl)c(Cl)c1)N1CCC(CNCc2cccc(-c3ccco3)n2)CC1 | 5-hydroxytryptamine receptor 1A (Homo sapiens, UniProt P08908) | 8.28
O=C(c1ccc(Cl)c(Cl)c1)N1CCC(F)(CNCc2cccc(-c3ccco3)n2)CC1 | 5-hydroxytryptamine receptor 1A (Homo sapiens, UniProt P08908) | 8.58
O=C(c1ccc(Cl)c(Cl)c1)N1CCC(F)(CNCc2cccc(-c3cnco3)n2)CC1 | 5-hydroxytryptamine receptor 1A (Homo sapiens, UniProt P08908) | 8.05
O=C(c1ccc(Cl)c(Cl)c1)N1CCC(CNCc2cccc(N3CCC3)n2)CC1 | 5-hydroxytryptamine receptor 1A (Homo sapiens, UniProt P08908) | 8.15

Query string: Could you share which pEC50 value was measured for CN(C)c1cccc(CNCC2CCN(C(=O)c3ccc(Cl)c(Cl)c3)CC2)n1 ?
Result string: 7.69

Query string: Follow-up entry: O=C(c1ccc(Cl)c(Cl)c1)N1CCC(CNCc2cccc(-c3cnco3)n2)CC1
Result string: 8.70

Query string: Follow-up entry: CNc1cccc(CNCC2(F)CCN(C(=O)c3ccc(F)c(Cl)c3)CC2)n1
Result string: 7.90

Query string: Follow-up entry: Cc1ccc(CNCC2(F)CCN(C(=O)c3ccc(F)c(Cl)c3)CC2)nc1-n1cccn1
Result string: 7.83

Query string: Follow-up entry: O=C(c1ccc(Cl)c(Cl)c1)N1CCC(CNCc2cccc(-n3cccn3)n2)CC1
Result string: 7.51

Query string: Follow-up entry: O=C(c1ccc(Cl)c(Cl)c1)N1CCC(F)(CNCc2cccc(-c3cccs3)n2)CC1
Result string: 7.92

Query string: Follow-up entry: CN(C)c1cccc(CNCC2(F)CCN(C(=O)c3ccc(Cl)c(Cl)c3)CC2)n1
Result string: 8.53

Query string: Follow-up entry: CCNc1cccc(CNCC2(F)CCN(C(=O)c3ccc(F)c(Cl)c3)CC2)n1
Result string: 7.88
